tested on: U2OS; test: Incucyte cell viability with U2OS; format: toxicity, cell-based; conditions: human, 24 h, 10 µM, compound concentration 10 uM, replicate number 1, timepoint 24 hours; also: filed as whole numbers so only -1 and 0 and 1 occur
measurement-type: Growth Rate

{"columns": ["molecule", "measurement-type", "readout-value"],
 "data": [
  ["CCCNS(=O)(=O)Nc1ncnc(OCCOc2ncc(Br)cn2)c1-c1ccc(Br)cc1", "Growth Rate", 0],
  ["COc1cc(N2CCC(N3CCN(C)CC3)CC2)ccc1Nc1ncc(Cl)c(Nc2ccccc2P(C)(C)=O)n1 [BRIGATINIB]", "Growth Rate", 0],
  ["N#Cc1c[nH]c2c(C(=O)N3CCN(CCc4ccc(F)cc4)CC3)cccc12 [PRUVANSERIN]", "Growth Rate", 0],
  ["Cc1oncc1C(=O)Nc1ccc(C(F)(F)F)cc1 [LEFLUNOMIDE]", "Growth Rate", 1],
  ["Cc1c(NC(=O)c2cc(C(N)=O)nc3cc(F)ccc23)c(C(F)(F)F)nn1Cc1ccc(C#N)cc1 [BAY-876]", "Growth Rate", 0],
  ["COc1ccc(-c2ccc3c(N4CCOCC4)nc(N4C[C@@H](C)O[C@@H](C)C4)nc3n2)cc1CO [Ku-0063794]", "Growth Rate", 0],
  ["O=C1NCN(c2ccccc2)C12CCN(CC1COc3ccccc3O1)CC2 (stereo not drawn) [SPIROXATRINE]", "Growth Rate", 1],
  ["CCn1c(=O)c(-c2ccc(-c3cncs3)cc2Cl)cc2cnc(Nc3ccc(N4CCN(C)CC4)cc3)nc21", "Growth Rate", 0]
]}

====

system: Fibroblast; assay: Multiplex assay against human fibroblast; format: toxicity, cell-based; details: 12 h, 1 µM, compound concentration 1 uM, replicate 1
Population Normal (%) values, listed per item

{"columns": ["compound", "Population Normal (%)"],
 "data": [
  ["CCN1CCN(Cc2ccc(Nc3ncc(F)c(-c4cc(F)c5nc(C)n(C(C)C)c5c4)n3)nc2)CC1.CS(=O)(=O)O", 84],
  ["CCc1cccc(CC)c1NC(=O)c1nn(C)c2c1CCc1cnc(Nc3ccc(C(=O)NC4CCN(C)CC4)cc3OC(F)(F)F)nc1-2", 92],
  ["O=C(Nc1cccnn1)N1CCC(=Cc2cccc(Oc3ccc(C(F)(F)F)cn3)c2)CC1", 89],
  ["CN(C)C(=O)C(CCN1CCC(O)(c2ccc(Cl)cc2)CC1)(c1ccccc1)c1ccccc1.Cl [LOPERAMIDE HYDROCHLORIDE]", 87],
  ["Cl.O=C(c1ccc(Nc2nccc(-c3cc4ccccc4s3)n2)cc1)N1CCC(N2CCCC2)CC1", 78],
  ["CCOc1cc(C(=O)N2CCC(N3CCN(C)CC3)CC2)ccc1Nc1ncc2c(n1)N(C1CCCC1)c1ccccc1C(=O)N2C", 86],
  ["CCn1c(=O)c(-c2ccc(-c3cncs3)cc2Cl)cc2cnc(Nc3ccc(N4CCN(C)CC4)cc3)nc21", 82],
  ["Cl.Oc1ccc2c3c1O[C@H]1c4[nH]c5c(c4C[C@@]4(O)[C@@H](C2)N(CC2CC2)CC[C@]314)C[C@@]1(O)[C@H]2Cc3ccc(O)c4c3[C@@]1(CCN2CC1CC1)[C@H]5O4", 84],
  ["C=CCn1c(=O)c2cnc(Nc3ccc(N4CCN(C)CC4)cc3)nc2n1-c1cccc(C(C)(C)O)n1 [ADAVOSERTIB]", 84],
  ["C=C1/C(=C\\C=C2/CCC[C@]3(C)[C@@H]([C@H](C)/C=C/[C@H](C)C(C)C)CC[C@@H]23)C[C@@H](O)C[C@@H]1O [DOXERCALCIFEROL]", 89],
  ["COc1ccc(-c2ccc3c(N4CCOCC4)nc(N4C[C@@H](C)O[C@@H](C)C4)nc3n2)cc1CO [Ku-0063794]", 83],
  ["Cc1cc(C)c(S(=O)(=O)N(Cc2ccc(-c3cccc(S(C)(=O)=O)c3)cc2)Cc2ccc(C(F)(F)F)o2)c(C)c1", 91],
  ["CCCS(=O)(=O)c1nc(NC2CC2)cc(-c2ccc3c(ccn3C3CC(C)(C)NC(C)(C)C3)c2)n1", 88],
  ["O=C(Nc1ccc(-n2nc(-c3cccnc3)cc2C(F)(F)F)cn1)c1ccc(-c2ccccc2)c(F)c1 [BI 2049]", 89],
  ["COc1ccc(S(=O)(=O)N(CCO)c2ccccc2CN(C)C/C=C/c2ccc(Cl)cc2)cc1.O=P(O)(O)O", 83]
]}

====

The entries below are paired with their reported Population Fragmented Nuclei (%).
tested on: U2OS; assay: Multiplex assay against U2OS; assay type: toxicity, cell-based; settings: human, 48 h, 10 µM, compound concentration 10 uM, replicate 1

{"columns": ["compound", "Population Fragmented Nuclei (%)"],
 "data": [
  ["Cl.O=C(c1ccc(Nc2nccc(-c3cc4ccccc4s3)n2)cc1)N1CCC(N2CCCC2)CC1", 32],
  ["CN1C2CCC1CC(OC(c1ccc(F)cc1)c1ccc(F)cc1)C2.Cl (stereo unspecified)", 20],
  ["CCCS(=O)(=O)c1nc(NC2CC2)cc(-c2ccc3c(ccn3C3CC(C)(C)NC(C)(C)C3)c2)n1", 81],
  ["Cl.O=c1c2cccn2c2ccccc2n1CCCN1CCC(c2ccc(Cl)cc2)CC1", 18],
  ["S=C(NCCCc1c[nH]cn1)NCCCN(Cc1ccc(Cl)c(Cl)c1)c1ccc(Br)cn1", 50],
  ["CCN1CCN(Cc2ccc(Nc3ncc(F)c(-c4cc(F)c5nc(C)n(C(C)C)c5c4)n3)nc2)CC1.CS(=O)(=O)O", 43],
  ["Cc1cn(-c2cc(NC(=O)c3ccc(C)c(Nc4nccc(-c5cccnc5)n4)c3)cc(C(F)(F)F)c2)cn1 [NILOTINIB]", 69],
  ["Cc1ccc(C(=O)Nc2cccc(C(F)(F)F)c2)cc1Nc1nc(-c2cccnc2)nc2c1cnn2C", 35],
  ["Cl.Oc1ccc2c3c1O[C@H]1c4[nH]c5c(c4C[C@@]4(O)[C@@H](C2)N(CC2CC2)CC[C@]314)C[C@@]1(O)[C@H]2Cc3ccc(O)c4c3[C@@]1(CCN2CC1CC1)[C@H]5O4", 4],
  ["COCC(=O)NC/C=C/c1ccc2ncnc(Nc3ccc(Oc4ccc(C)nc4)c(C)c3)c2c1 [CP-724714]", 22],
  ["CCCn1c(=O)c2[nH]c(-c3cnn(Cc4cccc(C(F)(F)F)c4)c3)nc2n(CC)c1=O [GS 6201]", 51],
  ["O=C(Nc1ccc(-n2nc(-c3cccnc3)cc2C(F)(F)F)cn1)c1ccc(-c2ccccc2)c(F)c1 [BI 2049]", 8],
  ["O=C1NC(=O)C(c2cnc3ccccn23)=C1c1cn2c3c(cc(F)cc13)CN(C(=O)N1CCCCC1)CC2 [LY-2090314]", 33],
  ["COc1cc(N2CCN(C)CC2)ccc1Nc1ncc2c(n1)N(C)c1ccccc1C(=O)N2C", 21],
  ["O=C(Nc1ccc(-c2ccnc(Nc3ccc(N4CCOCC4)cc3)n2)cc1)[C@@H]1CCCN1", 24],
  ["CCc1cccc(CC)c1NC(=O)c1nn(C)c2c1CCc1cnc(Nc3ccc(C(=O)NC4CCN(C)CC4)cc3OC(F)(F)F)nc1-2", 27]
]}

====

Population Normal (%) overview
tested on: HEK-293T; experiment: Multiplex assay against HEK293T; type: toxicity, cell-based; conditions: human, 24 h, 10 µM, compound concentration 10 uM, replicate 2

{"columns": ["compound", "Population Normal (%)"],
 "data": [
  ["CCn1cc(-c2ccnc3[nH]c(-c4cccc(CN(C)C)c4)cc23)c(-c2ccc(NC(=O)N(C)C)cc2)n1", "82%"],
  ["COc1ccc(-c2ccc3c(N4CCOCC4)nc(N4C[C@@H](C)O[C@@H](C)C4)nc3n2)cc1CO", "75%"],
  ["CCOC(=O)c1c(C)[nH]c2ccc3c(c12)CN1CCc2cc(OC)ccc2C1O3 (stereo not drawn)", "83%"]
]}

====

test system: U2OS; test: Multiplex assay against U2OS; assay type: toxicity, cell-based; conditions: human, 48 h, 1 µM, compound concentration 1 uM, replicate 2

{"columns": ["molecule", "reading-unit", "Population Healthy Nuclei (%)"],
 "data": [
  ["O=C1N/C(=N/c2ccccc2F)S/C1=C\\c1ccc(C(=O)O)cc1", "%", 92],
  ["Cl.O=c1c2cccn2c2ccccc2n1CCCN1CCC(c2ccc(Cl)cc2)CC1", "%", 70],
  ["Cc1ccc(C(=O)Nc2cccc(C(F)(F)F)c2)cc1Nc1nc(-c2cccnc2)nc2c1cnn2C", "%", 78],
  ["Cc1cc(C)c(S(=O)(=O)N(Cc2ccc(-c3cccc(S(C)(=O)=O)c3)cc2)Cc2ccc(C(F)(F)F)o2)c(C)c1", "%", 84],
  ["S=C(NCCCc1c[nH]cn1)NCCCN(Cc1ccc(Cl)c(Cl)c1)c1ccc(Br)cn1", "%", 54],
  ["CCc1cccc(CC)c1NC(=O)c1nn(C)c2c1CCc1cnc(Nc3ccc(C(=O)NC4CCN(C)CC4)cc3OC(F)(F)F)nc1-2", "%", 72],
  ["CNc1cc(Oc2cc(C(=O)Nc3cc(N4CCN(C)CC4)cc(C(F)(F)F)c3)ccc2C)ncn1", "%", 70],
  ["CCCn1c(=O)c2[nH]c(-c3cnn(Cc4cccc(C(F)(F)F)c4)c3)nc2n(CC)c1=O", "%", 91],
  ["CN1CCC(=C2c3ccccc3CC(=O)c3sccc32)CC1.O=C(O)/C=C/C(=O)O [KETOTIFEN FUMARATE]", "%", 80]
]}
